target: A31 (A*3101) (Homo sapiens, UniProt P04439, A270S/D185E/E176V/E277Q/F33T/G231S/G80R/H175R/I121M/I218V/I322F/K168Q/L300P/L318F/M331R/P217A/Q94H/R138Q/T323A/T345S/T97I/V358M); experiment: biochemical; type: binding
No end group written: not given here.
Assignment: determine reported IC50 for the given sequences.

The examples below pair each entry with its known result.
SFMELVRPFK [Peptide 88.0163] : 7.7 nM
LLLIRFKCSK [Peptide 88.0191] : 749 nM
KGLGISYGRKK [Peptide 1577.23] : 49 nM

Please give IC50 for each item listed below.
1. KTASVGTPK [Peptide 1589.27]
2. NSNAAAFLK [Peptide 88.0342]
3. LQGLAQSRYK [Peptide 88.0201]
4. HLFGYSYYK [Peptide 76.0191]
5. LTKMFCQLAK [Peptide 1556.51]
6. GVSIEWRQR [Peptide 9017.0087]

1: 44 nM; 2: 2640 nM; 3: 4010 nM; 4: 1800 nM; 5: 2380 nM; 6: 335 nM

====

biological target: A*0203 (Homo sapiens, UniProt P04439, A173T/D140Y/D185E/D98H/E277Q/G131W/G231S/I119V/I121R/I166T/I218V/L180W/L300P/L318F/N151K/N90K/P208A/P217A/Q86G/Q94H/R138H/R169H/T345S); assay: biochemical; assay type: binding
No end group written: not given here.
Please respond with reported IC50 for every item in the list.
Answers are plain numbers, in µM.

Study these solved cases before continuing.
SLNRSDPVTL [Peptide 9013.0233] : 0.08
NLAEGKEVL [Peptide 9013.0016] : 0.293

Record IC50 per entry; entries follow.
1. TLVLFIAKI [Peptide 9013.0106]
2. RVLQQLLFI [Peptide 1545.01]
3. TVTTITVYV [Peptide 9013.0068]
4. RTLQQLLFI [Peptide 1525.11]

1. 0.021
2. 0.024
3. 0.058
4. 1.66

For the 4 sequences below, give their IC50 values.
1. ILNIIQNDT [Peptide 9013.0033]
2. GLNRTTVTV [Peptide 9013.0066]
3. QLHTQVLFIA [Peptide 9013.0242]
4. QLSNGNRTLTL [Peptide 9013.0292]

[8.01, 0.0038, 0.163, 0.683]

State recorded IC50 for all listed sequences.
1. FQQSTQELFV [Peptide 9013.0178]
2. YLCGIQNSVSA [Peptide 9013.0338]
3. YTCGIQNSV [Peptide 9013.0096]

0.046
0.18
0.31

====

target: A*0203 (Homo sapiens, UniProt P04439, A173T/D140Y/D185E/D98H/E277Q/G131W/G231S/I119V/I121R/I166T/I218V/L180W/L300P/L318F/N151K/N90K/P208A/P217A/Q86G/Q94H/R138H/R169H/T345S); test: biochemical; type: binding
No end group written: not given here.
I'd appreciate it if you could supply log10 IC50 values for the items below.
Hello, just confirming the data are log10 of IC50 with units of nM.

Examples with their reported log10 IC50 follow.
RILQQMLFI [Peptide 1525.22] : 2.38
KLLSKLLCV [Peptide 1578.03] : 1.56
LLLSNGNRTL [Peptide 9013.0227] : 2.61
SLPVSPRLQV [Peptide 9013.0222] : 2.19
YTNWGEIYI [Peptide 1578.49] : 1.91

Hi there! I need log10 IC50 for each item below, if you can.
1. GMGCTGWFEV [Peptide 1578.19]
2. LLLSNDNRTL [Peptide 9013.0205]

1. 1.79
2. 3.62

====

target: A*0206 (Homo sapiens, UniProt P04439, D140Y/D185E/D98H/E176V/E277Q/F33Y/G131W/G231S/I119V/I121R/I166T/I218V/L300P/L318F/N151K/N90K/P208A/P217A/Q86G/Q94H/R138H/R169H/T345S); experiment: biochemical; assay type: binding
No end group written: not given here.
READOUT_TYPE: IC50 (nM)
Numbers only, in nM.

Below, 5 sequences whose answers are already recorded.
ALNTTYLWWV [Peptide 9013.0217] : 578
GVLVGVALV [Peptide 9013.0110] : 56
FLVAFKQFL [Peptide 1578.42] : 81
LIQPFILYA [Peptide 1578.07] : 71
VQWAFDNEV [Peptide 86.0209] : 31

Report IC50 for each item below.
1. RMLQQLLFI [Peptide 1525.12]
2. VLAEAMSHV [Peptide 1516.08]

1. 16
2. 89

====

biological target: HLA-A*0201 (HLA-A2.1) (Homo sapiens, UniProt P04439, D140Y/D185E/D98H/E176V/E277Q/G131W/G231S/I119V/I121R/I166T/I218V/L300P/L318F/N151K/N90K/P208A/P217A/Q86G/Q94H/R138H/R169H/T345S); experiment: biochemical; assay type: binding
No end group written: not given here.
Hi! Could you tag entries with IC50 below 2000 nM as 1, and those at or above as -1? Much appreciated.

ALYWYRTGI [Peptide 86.0181] : 1
RLQLSNGNRTV [Peptide 9013.0328] : -1
STQELFIPNV [Peptide 9013.0181] : -1
GVNLSLSCHAV [Peptide 9013.0311] : -1
TTAKLTIESV [Peptide 9013.0125] : -1

Is IC50 strictly under 2000 nM for the entry FLVAFKQFL [Peptide 1578.42] ?
1

Decide: IC50 of ILQNDTGFYT [Peptide 9013.0147] strictly below 2000 nM?
1

Take the sequence TLESTPFNV [Peptide 9013.0012] and say whether its IC50 is less than 2000 nM.
1

====

target: DRB1*1101 (Homo sapiens, UniProt P01903+P01911, A100R/A169T/A87E/I96F/K41T/L162R/M171V/P40S/Q125H/Q178H/Q39Y/Q99D/R42S/S66Y/T262R/V115G/W38E); assay: biochemical; conditions: Binding affinity DRB1 *1101
Sequence (P01903 26-254 limits assumed, other chains not shown): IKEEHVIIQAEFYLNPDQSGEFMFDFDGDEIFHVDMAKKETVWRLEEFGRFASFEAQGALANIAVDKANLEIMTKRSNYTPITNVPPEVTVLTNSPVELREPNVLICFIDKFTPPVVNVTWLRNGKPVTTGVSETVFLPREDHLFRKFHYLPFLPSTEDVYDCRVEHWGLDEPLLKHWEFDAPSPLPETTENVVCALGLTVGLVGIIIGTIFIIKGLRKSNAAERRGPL
pIC50: −log10 of the molar value. No end group written: not given here.
READOUT_TYPE: pIC50

Go through the items and report each one's pIC50.
1. YENDSTDLRDHIDYW [Peptide 1601.01]
2. RLTVSKLMSQLLNIP [Peptide 89.0100]
3. EDEIDTDLDGFIDDS [Peptide 90.0126]
4. LKVLIKQHSIYTHLQ [Peptide 89.0142]
5. LLEFIDDSMENSIQA [Peptide 90.0077]
6. GQVIVCPASVSSNEV [Peptide 90.0016]
7. SEVYDFAFADLTVVY [Peptide 85.0024]

1. < 4.70
2. < 4.70
3. < 4.70
4. < 4.70
5. 5.12
6. 5.32
7. < 4.70

Look at each sequence and report its pIC50.
1. PHAFPFDKNGNPVYE [Peptide 90.0106]
2. LVQLKCPPLLLTSNT [Peptide 89.0077]
3. TAIFGVNPTIAEGFK [Peptide 89.0024]
4. RVPVSHSFPHPLYNM [Peptide 68.0006]
5. LYCYEQLSDSSDEDE [Peptide 1543.13]
6. SQLLNIPETHMVIEP [Peptide 89.0102]

< 4.70
4.75
5.39
< 4.70
5.47
< 4.70

# batch: return pIC50 for each of the 6 sequences below
1. NGVLQGITSWGPEPC [Peptide 68.0017]
2. PTGCLKKHGYTVEVQ [Peptide 1601.23]
3. EYVLDLYPEPTDLYC [Peptide 1543.12]
4. PCHTTKLLHRDSVDS [Peptide 1601.07]
5. STSDDTVSATQIVRQ [Peptide 1601.31]
6. DIAYKYAQLADVNSN [Peptide 89.0108]

["< 4.70", "< 4.70", "< 4.70", 5.53, "< 4.70", 4.90]

====

biological target: HLA-A1 (A*0101) (Homo sapiens, UniProt P04439, A114D/A174V/A182V/D101N/D185E/E176A/E190D/L180R/Q94H/R68K/S129P/T187R/V100A/V91M/W191G); assay: biochemical; assay type: binding
pIC50: −log10 of the molar value. No end group written: not given here.
Record MET whenever pIC50 is at 7 or higher; record NOT MET when lower.

HYARELHPEY [Peptide 9018.0035] : NOT MET
DTADQLIHLY [Peptide 9018.0021] : MET
VTETLEEITGY [Peptide 9012.0178] : MET
QAEPDTSNY [Peptide 1549.03] : NOT MET
RTDPVTLDVLY [Peptide 9012.0168] : MET
VTQGLPREY [Peptide 9012.0128] : NOT MET

Next sequence, please.
Quick check: does ITDDSEIAY [Peptide 1593.04] have pIC50 greater than or equal to 7?
MET
